The measured values listed here are drawn from paper PMC8279484.

# System: THP-1 LUCIA monocytes
# experiment.notes: In vitro safety study: Safety index (Si), activity versus toxicity
# Format: cell-based, human
# applied.conditions: ratio of intrinsic TC50 to extrinsic hIC50
Here, each record is paired with measured Safety Index TC50/IC50 data.
Lab note: record the figure alone, no unit after it.

Solved cases (5 shown):
# compound, system.under.test, Safety Index TC50/IC50
measured = [
    ("CCCCC[C@H](O)c1nc2ccccc2nc1/C=C/[C@@H](O)[C@@H](O)CCCC(=O)OC [(S)-6]", "THP-1 LUCIA monocytes", 10),
    ("CCCCCCC[C@@H](O)c1nc2ccccc2nc1/C=C/[C@@H](O)[C@@H](O)CCCC(=O)OC [(R)-8]", "THP-1 LUCIA monocytes", 50),
    ("CCC[C@@H](O)c1nc2ccccc2nc1/C=C/[C@@H](O)[C@@H](O)CCCC(=O)OC [(R)-7]", "THP-1 LUCIA monocytes", 20),
    ("CCC[C@H](O)c1nc2ccccc2nc1/C=C/[C@@H](O)[C@@H](O)CCCC(=O)OC [(S)-7]", "THP-1 LUCIA monocytes", 7),
    ("CCCCC[C@@H](O)c1nc2ccccc2nc1/C=C/[C@H]1OC(C)(C)O[C@H]1CCCC(=O)OC [(R)-17]", "THP-1 LUCIA monocytes", 10),
]

# context switch: different compound, same Safety Index TC50/IC50
Input: Entry under review: CCCCC[C@H](O)c1nc2ccccc2nc1/C=C/[C@H]1OC(C)(C)O[C@H]1CCCC(=O)OC [(S)-17] . Reported Safety Index TC50/IC50?
Output: 33

---

Here, each record is paired with measured (Aggregate) Rel. PD Score data.
# Tested on: NF-κB
# experiment.notes: LPS-induced NF-κB-driven luciferase gene reporter assay in THP-1 Lucia monocytes
# Assay type: cell-based, human
# applied.conditions: sum of efficacy, potency, slope scores relative to LXA4 (1)
Lab note: record the figure alone, no unit after it.

# molecule, measured.number
data = [
    ("CCC[C@H](O)c1nc2ccccc2nc1/C=C/[C@@H](O)[C@@H](O)CCCC(=O)OC [(S)-7]", -1),
    ("CCCCC[C@@H](O)c1c(/C=C/[C@@H](O)[C@@H](O)CCCC(=O)OC)nc(C)n1C [Compound 5, imidazolo-LXA4]", 5),
    ("CCCCCCC[C@H](O)c1nc2ccccc2nc1/C=C/[C@@H](O)[C@@H](O)CCCC(=O)OC [(S)-8]", -2),
    ("CCC[C@@H](O)c1nc2ccccc2nc1/C=C/[C@@H](O)[C@@H](O)CCCC(=O)OC [(R)-7]", -2),
]

# context switch: different molecule, same (Aggregate) Rel. PD Score
Input: Requested read-out (Aggregate) Rel. PD Score, target or system NF-κB, entry CCCCC[C@@H](O)c1nc2ccccc2nc1/C=C/[C@H]1OC(C)(C)O[C@H]1CCCC(=O)OC [(R)-17]
Output: -3
